Answer each item with its documented EA content.
Molecular target: CALBL (Moesziomyces antarcticus, UniProt P41365)
Construct: purchased Novozymes, Bagsvaerd, Denmark Novozym CALB L
Sequence (P41365 26-342): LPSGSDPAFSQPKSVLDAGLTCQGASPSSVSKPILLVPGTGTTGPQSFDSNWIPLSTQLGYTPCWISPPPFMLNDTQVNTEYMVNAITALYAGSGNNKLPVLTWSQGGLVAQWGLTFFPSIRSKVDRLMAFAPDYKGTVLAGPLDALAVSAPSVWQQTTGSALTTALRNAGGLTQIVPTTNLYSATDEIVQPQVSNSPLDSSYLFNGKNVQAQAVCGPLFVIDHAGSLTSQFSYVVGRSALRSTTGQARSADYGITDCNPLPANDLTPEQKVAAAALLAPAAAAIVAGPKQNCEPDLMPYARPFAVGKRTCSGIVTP
Assay: Small molecule inhibitors: EA content of latex containing CALBL
Format: biochemical
Settings: AC-261 latex, CALBL 60 ppm, inhibitor 1.0% added simultaneously (Control: none), 24 hr
Answers are plain numbers, in ppm.

Illustrative cases are given below, each with its answer.
>  <compound>
CCCCCCCCCCS(=O)(=O)[O-].[Na+] [S-1-DS, Sodium 1-decane-sulfonate]

>  <measured.on>
CALBL (Moesziomyces antarcticus, UniProt P41365)

>  <EA content (ppm)>
73

$$$$
>  <compound>
CC(C)(C)CB(O)O [NPB, Neopentylboronic acid]

>  <measured.on>
CALBL (Moesziomyces antarcticus, UniProt P41365)

>  <EA content (ppm)>
21

$$$$
>  <compound>
CC(C)CB(O)O [2MPB, (2-methylpropyl) boronic acid]

>  <measured.on>
CALBL (Moesziomyces antarcticus, UniProt P41365)

>  <EA content (ppm)>
95

$$$$
>  <compound>
OB(O)c1ccccc1 [PBA, phenylboronic acid]

>  <measured.on>
CALBL (Moesziomyces antarcticus, UniProt P41365)

>  <EA content (ppm)>
103

$$$$

Now look at this one.
Lookup: Give CALBL (Moesziomyces antarcticus, UniProt P41365) EA content for OB(O)C1CCCCC1 [CBA, cyclohexylboronic acid]
Found: 70

---

Tested on: N51032
Test: Small molecule inhibitors: EA content of latex containing N51032
Type: biochemical
Settings: AC-261 latex, N51032 50 ppm, inhibitor 1% added simultaneously (Control: none), 72 hr
Please go through the items and note down their EA content.
Numbers only, in ppm.

Observe how each entry below is paired with its result.
>  <compound>
OB(O)c1ccccc1

>  <measured.on>
N51032

>  <units.text>
ppm

>  <EA content>
111

$$$$
>  <compound>
CC(C)(C)CB(O)O

>  <measured.on>
N51032

>  <units.text>
ppm

>  <EA content>
30

$$$$
>  <compound>
CC(C)CB(O)O

>  <measured.on>
N51032

>  <units.text>
ppm

>  <EA content>
99

$$$$
>  <compound>
OB(O)C1CCCCC1

>  <measured.on>
N51032

>  <units.text>
ppm

>  <EA content>
109

$$$$

Consider now this further compound.
Lookup: # get_value(readout='EA content', item= CCCCCCCCCCS(=O)(=O)[O-].[Na+] [S-1-DS, Sodium 1-decane-sulfonate] )
Found: 79

---

Molecular target: CALBL (Moesziomyces antarcticus, UniProt P41365)
Construct: purchased Novozymes, Bagsvaerd, Denmark Novozym CALB L
Assay: Small molecule inhibitors: EA content of latex containing CALBL
Assay type: biochemical
Conditions: AC-261 latex, CALBL 60 ppm, inhibitor 1.0% added simultaneously (Control: none), 168 hr
Decision: EA content >= 100 ppm yields MET, all other cases yield NOT MET.

Worked cases, answers included:
>  <compound>
CCCCCCCCCCS(=O)(=O)[O-].[Na+] [S-1-DS, Sodium 1-decane-sulfonate]

>  <assigned.label>
NOT MET

$$$$
>  <compound>
OB(O)c1ccccc1

>  <assigned.label>
MET

$$$$
>  <compound>
OB(O)C1CCCCC1

>  <assigned.label>
NOT MET

$$$$
>  <compound>
CC(C)CB(O)O

>  <assigned.label>
MET

$$$$

Then this compound:
Lookup: Say whether CC(C)(C)CB(O)O shows EA content of 100 ppm or more.
Found: NOT MET
